- System: HCC1937
- assay method text: relative cell viability, compound + RSL3, vs DMSO (fraction of DMSO control); higher = less growth inhibition
- condition set: 72 h
measurement name: relative cell viability
Form rule: numeric answer, no unit written next to it.

Recorded relative cell viability for O=C(OC(C(F)(F)F)C(F)(F)F)N1CCC(C(O)(c2ccc3c(c2)OCO3)c2ccc3c(c2)OCO3)CC1 + COC(=O)c1ccc([C@H]2c3[nH]c4ccccc4c3C[C@H](C(=O)OC)N2C(=O)CCl)cc1 [RSL3] on HCC1937 was 0.551

Value (relative cell viability, HCC1937) for record CC(C)(C)c1ccc(-c2nc3ccccc3[nH]2)cc1 + COC(=O)c1ccc([C@H]2c3[nH]c4ccccc4c3C[C@H](C(=O)OC)N2C(=O)CCl)cc1 [RSL3] = 0.529

Param item: CC(=O)Oc1cc(C(F)(F)F)ccc1C(=O)O [Triflusal] + COC(=O)c1ccc([C@H]2c3[nH]c4ccccc4c3C[C@H](C(=O)OC)N2C(=O)CCl)cc1 [RSL3] ; param system: HCC1937; output relative cell viability: 0.717

* * *

Consider the following compounds and their measured relative cell viability readings.
- Test system: HCC1937
- assay method text: relative cell viability, compound alone, vs DMSO (fraction of DMSO control); higher = less growth inhibition
- condition set: 72 h
Number, no unit, nothing else.

Would you please look over these solved cases?
compound="Cc1ccc(CN(CC(O)COc2cccc3[nH]ccc23)C(C)(C)C)cc1 (stereo unspecified)" measurement_name="relative cell viability" numeric_value=0.994
compound=CC(C)c1c(C(=O)Nc2ccccc2)c(-c2ccccc2)c(-c2ccc(F)cc2)n1CC[C@@H](O)C[C@@H](O)CC(=O)O measurement_name="relative cell viability" numeric_value=0.657
compound=CC(C)(Oc1ccc(Cl)cc1)C(=O)O measurement_name="relative cell viability" numeric_value=1.24
compound=O=C1c2cccc(O)c2C(=O)c2c(O)cccc21 measurement_name="relative cell viability" numeric_value=0.699
compound=COc1cc([C@@H]2Oc3c(O)cc([C@H]4Oc5cc(O)cc(O)c5C(=O)[C@@H]4O)cc3[C@H]2CO)ccc1O measurement_name="relative cell viability" numeric_value=1.04
compound="CC(C)(Oc1ccc(CCNC(=O)c2ccc(Cl)cc2)cc1)C(=O)O [Bezafibrate]" measurement_name="relative cell viability" numeric_value=0.628
compound=O=C1C(SCCO)=C(SCCO)C(=O)c2ccccc21 measurement_name="relative cell viability" numeric_value=0.777
compound="Cn1c2cc([S+](C)[O-])sc2c2cnn(Cc3cccc(N)c3)c(=O)c21 (stereo unspecified)" measurement_name="relative cell viability" numeric_value=0.688
compound=O=S(=O)(O)c1ccc2cc(N=Nc3cc(S(=O)(=O)O)c4cccnc4c3O)ccc2c1 measurement_name="relative cell viability" numeric_value=0.987
compound=CCCCCCCCCCC#CC#CCCCCCCCCC(=O)O measurement_name="relative cell viability" numeric_value=0.712

Just so you know, measured relative cell viability for C[C@H](CCOc1cccc(CC(=O)O)c1)N(Cc1cccc(C(F)(F)F)c1Cl)CC(c1ccccc1)c1ccccc1 [RGX-104 free Acid] came out at 0.613

* * *

- Tested on: HCC1937
- assay method text: relative cell viability, compound + RSL3, vs DMSO (fraction of DMSO control); higher = less growth inhibition
- condition set: 72 h
Structures can show the parent of a compound that is named as a salt.
Note to self: use true (1) only for relative cell viability readings below 0.5; a reading exactly at 0.5 still gets false (0).

compound="CC1(N)CCN(c2cnc(-c3cccc(Cl)c3Cl)c(N)n2)CC1 [SHP099 hydrochloride] + COC(=O)c1ccc([C@H]2c3[nH]c4ccccc4c3C[C@H](C(=O)OC)N2C(=O)CCl)cc1 [RSL3]" target=HCC1937 group_label="true (1)"

Q. Given COC(=O)c1sccc1S(=O)(=O)Nc1ccc(Nc2ccccc2)cc1OC + COC(=O)c1ccc([C@H]2c3[nH]c4ccccc4c3C[C@H](C(=O)OC)N2C(=O)CCl)cc1 [RSL3] , is recorded relative cell viability strictly lower than 0.5?
A. true (1)

Q. Please indicate whether the reported relative cell viability of CCN(CC)c1ccc(C=NNC(=O)c2ccncc2)c(O)c1 + COC(=O)c1ccc([C@H]2c3[nH]c4ccccc4c3C[C@H](C(=O)OC)N2C(=O)CCl)cc1 [RSL3] is strictly below 0.5.
A. true (1)

Q. I'd appreciate it if you could check whether CN1CCN(c2ccc(/C=C(\C#N)c3ccccc3Br)cc2)CC1 [DG172 (dihydrochloride)] + COC(=O)c1ccc([C@H]2c3[nH]c4ccccc4c3C[C@H](C(=O)OC)N2C(=O)CCl)cc1 [RSL3] has relative cell viability smaller than 0.5.
A. true (1)

Q. Identify whether the compound CCOC(=O)c1c(NC(=O)CN2CCN(C(=O)c3ccco3)CC2)sc2c1CCC2 + COC(=O)c1ccc([C@H]2c3[nH]c4ccccc4c3C[C@H](C(=O)OC)N2C(=O)CCl)cc1 [RSL3] records relative cell viability below 0.5.
A. true (1)

Q. Determine if O=C(Nc1ccccc1)c1cc([N+](=O)[O-])ccc1Cl + COC(=O)c1ccc([C@H]2c3[nH]c4ccccc4c3C[C@H](C(=O)OC)N2C(=O)CCl)cc1 [RSL3] shows relative cell viability strictly lower than 0.5.
A. false (0)

Q. Determine whether this compound shows relative cell viability lower than 0.5 (ties excluded): COc1ccc2c(c1)c(CC(=O)O)c(C)n2C(=O)c1ccc(Cl)cc1 [Indometacin] + COC(=O)c1ccc([C@H]2c3[nH]c4ccccc4c3C[C@H](C(=O)OC)N2C(=O)CCl)cc1 [RSL3]
A. false (0)

Q. Identify whether the compound C[C@]12C=CC(=O)N[C@@H]1CC[C@@H]1[C@@H]2CC[C@]2(C)[C@@H](C(=O)Nc3cc(C(F)(F)F)ccc3C(F)(F)F)CC[C@@H]12 [Dutasteride] + COC(=O)c1ccc([C@H]2c3[nH]c4ccccc4c3C[C@H](C(=O)OC)N2C(=O)CCl)cc1 [RSL3] records relative cell viability below 0.5.
A. false (0)
